Each item that follows carries a reported AUC/dose.
# System: Rattus norvegicus
# test-description: Normalized AUC in rat whole blood at 3 mg/kg, po
# Assay type: ADME, organism-based
# Parameters: dose 3 mg/kg, route oral
# condition-context: in vivo
quantity-measured: AUC/dose (µM·kg·h/mg)

INSERT INTO measurements (compound, target_or_system, quantity_measured, measured_value) VALUES
  ('CS(=O)(=O)c1cc(C(F)(F)F)ccc1C(=O)N1CCC2(CCN(S(=O)(=O)c3cccc(C(F)(F)F)c3)CC2)C1', 'Rattus norvegicus', 'AUC/dose', 0.022),
  ('NS(=O)(=O)c1cccc(C(F)(F)F)c1', 'Rattus norvegicus', 'AUC/dose', 111),
  ('CC(C)(C1CCN(C(=O)c2cc(F)ccc2S(C)(=O)=O)CC1)S(=O)(=O)c1cccc(C(F)(F)F)c1', 'Rattus norvegicus', 'AUC/dose', 0.27),
  ('CC(C)(C1CCN(C(=O)c2ccc(S(C)(=O)=O)cc2OC(F)(F)F)CC1)S(=O)(=O)c1cccc(C(F)(F)F)c1', 'Rattus norvegicus', 'AUC/dose', 0.97),
  ('C[C@H]1[C@H](N(C2CC2)S(=O)(=O)c2cccc(C(F)(F)F)c2)CN1C(=O)c1ccc(S(C)(=O)=O)cc1Cl (racemic)', 'Rattus norvegicus', 'AUC/dose', 0.017);

Source: ChEMBL document CHEMBL3091454
